# Tested on: Klebsiella aerogenes DSM 30053
# RUN DESCRIPTION: fold change of Histamine concentration vs plate DMSO controls (fold change (ratio)); higher = more amine produced, active = hit call of the paper (significant change in both replicates, either direction)
# COND: incubation time: 27 h, anaerobic, 37 °C
Counter-ions that a name gives are not always drawn.
MEASURE NAME: fold change of Histamine concentration

Please review the entries below; each comes with its answer.
COMPOUND	MEASURE NAME	REPORTED RESULT
CC(C)(C(=O)c1cccnc1)c1cccnc1 [Metyrapone] (20 µM)	fold change of Histamine concentration	1.03 (inactive)
CN1CCN(C(c2ccccc2)c2ccc(Cl)cc2)CC1 (centres undefined) [Chlorcyclizine hydrochloride] (20 µM)	fold change of Histamine concentration	1.09 (inactive)

Which measured fold change of Histamine concentration value corresponds to Nc1ccn([C@@H]2CS[C@H](CO)O2)c(=O)n1 [Lamivudine] (20 µM) ?
1.06 (inactive)

So what's the measured fold change of Histamine concentration for this one? COc1cc(C(=O)NS(=O)(=O)c2ccccc2C)ccc1Cc1cn(C)c2ccc(NC(=O)OC3CCCC3)cc12 [Zafirlukast] (20 µM)
1.05 (inactive)

###

# System: Escherichia coli IAI1
# RUN DESCRIPTION: fold change of Putrescine concentration vs plate DMSO controls (fold change (ratio)); higher = more amine produced, active = hit call of the paper (significant change in both replicates, either direction)
# COND: incubation time: 27 h, anaerobic, 37 °C
Where a name gives a salt, the structure may show the parent alone.
MEASURE NAME: fold change of Putrescine concentration
Output spec: single numeric token, no unit.

COMPOUND	fold change of Putrescine concentration
CC(=O)c1cc2cccc(OCC(O)CNC(C)C)c2o1 (stereo not drawn) [Befunolol] (20 µM)	1.06
CCCCc1nc(Cl)c(CO)n1Cc1ccc(-c2ccccc2-c2nnn[nH]2)cc1 [Losartan] (20 µM)	1.01
CN(C)CCOC(=O)C(c1ccccc1)C1(O)CCCC1 (stereo not drawn) [Cyclopentolate hydrochloride] (20 µM)	1.04
CCn1nc(C(=O)O)c(=O)c2cc3c(cc21)OCO3 [Cinoxacin] (20 µM)	0.749
O=C(O[C@@H]1C[C@@H]2C[C@H]3C[C@H](C1)N2CC3=O)c1c[nH]c2ccccc12 [Dolasetron mesilate] (20 µM)	0.942
CN(C)CCOc1ccc(/C(=C(/CCCl)c2ccccc2)c2ccccc2)cc1 [Toremifene] (20 µM)	0.998
C[C@@H]1CCO[C@H]2Cn3cc(C(=O)NCc4ccc(F)cc4F)c(=O)c(O)c3C(=O)N12 [Dolutegravir] (20 µM)	1.07
Oc1c(Br)cc(Br)c2cccnc12 [Broxyquinoline] (20 µM)	1.03
CC(C)NC[C@H](O)COc1ccc(CC(N)=O)cc1 [(S,-) Atenolol] (20 µM)	0.847
CCCCCCOc1ccccc1C(N)=O [Exalamide] (20 µM)	0.952

Which measured fold change of Putrescine concentration value corresponds to CCCCN(CCCC)CCC(O)c1cc2c(Cl)cc(Cl)cc2c2cc(C(F)(F)F)ccc12 (stereo not drawn) [Halofantrine hydrochloride] (20 µM) ?
1.17

I would be grateful if you could share the reported fold change of Putrescine concentration for O=C1c2cccc(O)c2C(=O)c2c(O)cccc21 [Danthron] (20 µM) .
1.24

What fold change of Putrescine concentration value was documented for this compound, c1ccc(-c2ccc(C(c3ccccc3)n3ccnc3)cc2)cc1 (stereo not drawn) [Bifonazole] (20 µM) ?
1.04

###

# Tested on: Ruminococcus gnavus DSM 108212
# RUN DESCRIPTION: fold change of 2-Phenylethylamine concentration vs plate DMSO controls (fold change (ratio)); higher = more amine produced, active = hit call of the paper (significant change in both replicates, either direction);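 for the amine columns active = adjusted P below 0.05 in both replicates with a change the same way and a mean fold change under 0.8 or over 1.25; inactive = the rest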
# COND: incubation time: 27 h, anaerobic, 37 °C
Where a name gives a salt, the structure may show the parent alone.
Outcomes you can answer with include only these: Yes for active, No for inactive

Take a look at these entries with their results.
COMPOUND	CLASS NAME
CC1Cc2ccccc2N1NC(=O)c1ccc(Cl)c(S(N)(=O)=O)c1 (stereo not given) [Indapamide] (20 µM)	No
CCN1CCCC(OC(=O)C(c2ccccc2)c2ccccc2)C1 (stereo not given) [Piperidolate hydrochloride] (20 µM)	No
CC(C)NCC(O)c1ccc2ccccc2c1 (stereo not given) [Pronethalol hydrochloride] (20 µM)	No
CC(C)(C(=O)c1cccnc1)c1cccnc1 [Metyrapone] (20 µM)	No
N=c1nc(N2CCCCC2)cc(N)n1O [Minoxidil] (20 µM)	No
CCN(CC)CCOCCOC(=O)C1(c2ccccc2)CCCC1 [Carbetapentane citrate] (20 µM)	No
CCCC(=O)OCOC(=O)C1=C(C)NC(C)=C(C(=O)OC)C1c1cccc(Cl)c1Cl (stereo not given) [Clevidipine] (20 µM)	No
Clc1ccc(CCC(Cn2ccnc2)Sc2c(Cl)cccc2Cl)cc1 (stereo not given) [Butoconazole nitrate] (20 µM)	Yes
CCN(CC)C(C)CN1c2ccccc2Sc2ccccc21 (stereo not given) [Ethopropazine hydrochloride] (20 µM)	No
CC(=O)N[C@@H](CCC(N)=O)C(=O)O [Acetyl-L-glutamine] (20 µM)	No

Record request — test call for COCC1=C(C(=O)OC(C)OC(=O)OC(C)C)N2C(=O)[C@@H](NC(=O)/C(=N\OC)c3csc(N)n3)[C@H]2SC1 (stereo not given in full) [Cefpodoxime proxetil] (20 µM)
No

# lookup: test call for COc1cc(/C=C/C(=O)N2CCN(CC(=O)N3CCCC3)CC2)cc(OC)c1OC [Cinepazide maleate] (20 µM)
No

Which outcome did this test record for the compound NCCc1cc[nH]n1 [Betazole hydrochloride] (20 µM) ?
No

Kindly provide the recorded test outcome for the following compound: Cc1cc(O)c(C(=O)N[C@@H](C(=O)N[C@@H]2C(=O)N3C(C(=O)O)=C(CSc4nnnn4C)CS[C@H]23)c2ccc(O)cc2)cn1 [Cefpiramide] (20 µM)
Yes

What did this assay record as the result for COc1ccccc1Oc1c(NS(=O)(=O)c2ccc(C(C)(C)C)cc2)nc(-c2ncccn2)nc1OCCO [Bosentan] (20 µM) ?
No

I'd appreciate the recorded outcome for COc1ccc(-c2ccc3cc(C(=O)O)ccc3c2)cc1C12CC3CC(CC(C3)C1)C2 [Adapalene] (20 µM) from this test.
No

Outcome? O=C(O)COc1nn(Cc2ccccc2)c2ccccc12 [Bendazac] (20 µM)
No

# outcome recorded in this test, key = CN(C)CCN1C(=O)c2ccccc2N(C)c2ccccc21 [Dibenzepine hydrochloride] (20 µM)
No

###

Recorded measurements of fold change of Cadaverine concentration, one per entry
# Tested on: Klebsiella aerogenes DSM 30053
# RUN DESCRIPTION: fold change of Cadaverine concentration vs plate DMSO controls (fold change (ratio)); higher = more amine produced, active = hit call of the paper (significant change in both replicates, either direction)
# COND: incubation time: 27 h, anaerobic, 37 °C
Where a name gives a salt, the structure may show the parent alone.
// keep it numeric: no unit symbol after the value

Example entries and their recorded answers appear below.
MOLECULE	fold change of Cadaverine concentration
NC[C@@H]1O[C@H](O[C@H]2[C@@H](O)[C@H](O[C@@H]3[C@@H](O)[C@H](N)C[C@H](N)[C@H]3O[C@H]3O[C@H](CO)[C@@H](O)[C@H](O)[C@H]3N)O[C@@H]2CO)[C@H](N)[C@@H](O)[C@@H]1O [Paromomycin sulfate] (20 µM)	0.981
CCC1(c2ccccc2)NC(=O)N(C)C1=O (configuration not stated) [Mephenytoin] (20 µM)	1.02

Any idea what fold change of Cadaverine concentration came out for O=C(NCC1CCCCN1)c1cc(OCC(F)(F)F)ccc1OCC(F)(F)F (configuration not stated) [Flecainide acetate] (20 µM) on Klebsiella aerogenes DSM 30053?
0.989

Report fold change of Cadaverine concentration for Cn1c(=O)c2[nH]cnc2n(C)c1=O [Aminophylline] (20 µM) tested on Klebsiella aerogenes DSM 30053.
1

For the record NS(=O)(=O)c1cc2c(cc1Cl)NC(Cc1ccccc1)NS2(=O)=O (configuration not stated) [Benzylhydrochlorothiazide] (20 µM) , what value of fold change of Cadaverine concentration is listed for Klebsiella aerogenes DSM 30053?
1.01

Provide value of fold change of Cadaverine concentration for this record tested with Klebsiella aerogenes DSM 30053: CC#C[C@]1(O)CC[C@H]2[C@@H]3CCC4=CC(=O)CCC4=C3[C@@H](c3ccc(N(C)C)cc3)C[C@@]21C [Mifepristone] (20 µM)
0.998

# query: fold change of Cadaverine concentration | item CN1CCN(c2c(F)cc3c(=O)c(C(=O)O)cn(CCF)c3c2F)CC1 [Fleroxacin] (20 µM) | system: Klebsiella aerogenes DSM 30053
0.961

###

# System: Ruminococcus gnavus DSM 108212
# RUN DESCRIPTION: fold change of Tryptamine concentration vs plate DMSO controls (fold change (ratio)); higher = more amine produced, active = hit call of the paper (significant change in both replicates, either direction)
# COND: incubation time: 27 h, anaerobic, 37 °C
Structures can show the parent of a compound that is named as a salt.
Use 1 as the dividing line for fold change of Tryptamine concentration, with the line itself on the label 1 side and lower values as label 0.

Solved cases below.
COMPOUND	CLASS NAME
COCCCOc1ccnc(C[S+]([O-])c2nc3ccccc3[nH]2)c1C (configuration not stated) [Rabeprazole sodium salt] (20 µM)	label 1
OC(CCN1CCCCC1)(c1ccccc1)C1CC2C=CC1C2 (configuration not stated) [Biperiden hydrochloride] (20 µM)	label 0
CN(C)CCCN1c2ccccc2CCc2ccc(Cl)cc21 [Clomipramine hydrochloride] (20 µM)	label 0
CNCCCN1c2ccccc2CCc2ccccc21 [Desipramine hydrochloride] (20 µM)	label 0
O=C(Oc1ccccc1)c1ccccc1O [Phenyl salicylate] (20 µM)	label 1
CCCSc1ccc2[nH]c(NC(=O)OC)nc2c1 [Albendazole] (20 µM)	label 1
CC(C)COC(=O)OCN1C(=O)CN(CCN2CC(=O)N(COC(=O)OCC(C)C)C(=O)C2)CC1=O [Sobuzoxane] (20 µM)	label 1
CCOC(=O)c1ccc(OC(=O)CCCCCNC(=N)N)cc1 [Gabexate mesilate] (20 µM)	label 0
Cc1cc(C)nc(NS(=O)(=O)c2ccc(N)cc2)n1 [Sulfamethazine sodium salt] (20 µM)	label 1
CC(C)n1c(/C=C/C(O)CC(O)CC(=O)O)c(-c2ccc(F)cc2)c2ccccc21 (configuration not stated) [Fluvastatin sodium salt] (20 µM)	label 1

For this compound, is measured fold change of Tryptamine concentration 1 or higher? CCCNC(C)(C)C(=O)Nc1ccccc1C [Quatacaine] (20 µM)
label 1

Record Cc1ccccc1N1C(=O)c2cc(S(N)(=O)=O)c(Cl)cc2NC1C (configuration not stated) [Metolazone] (20 µM) ; criterion: fold change of Tryptamine concentration no lower than 1. Met?
label 1

Can N=c1ccn2c(n1)O[C@H]1[C@H](O)[C@@H](CO)O[C@H]12 [Ancitabine hydrochloride] (20 µM) be said to have fold change of Tryptamine concentration at or above 1?
label 0
